Origin of values: ChEMBL document CHEMBL5058577

# System: HEK-293T
# Experiment: Multiplex assay against HEK293T
# Format: toxicity, cell-based
# Condition: human, 48 h, 1 µM, compound concentration 1 uM, replicate 1
Quantity Name: Population Membrane Permeable-Phenotype (%)
# unit: % | format: bare number

Cc1cc(NC(=O)NCCN2CCC(O)(Cc3ccccc3)CC2)c2ccccc2n1: 1
CCCCCCNC(=O)Nc1ccc(S(=O)(=O)Nc2ccc(CCNC[C@H](O)COc3ccc(O)cc3)cc2)cc1: 2

Field: Population Membrane Permeable-Phenotype (%) (HEK-293T). Entry: `CC(C)C[C@H](CO)Nc1nc(S[C@@H](C)c2ccccc2)nc2nc(N)sc12`
0

----------
# System: Fibroblast
# Experiment: Multiplex assay against human fibroblast
# Format: toxicity, cell-based
# Condition: 12 h, 10 µM, compound concentration 10 uM, replicate 1
Quick reference: Population Membrane Permeable-Phenotype (%) of the listed items.
# unit: % | format: bare number

Consider the reported Population Membrane Permeable-Phenotype (%) for these compounds:
Cl.Cl.OCCOCCN1CCN(C(c2ccccc2)c2ccc(Cl)cc2)CC1 (stereo unspecified) [HYDROXYZINE HYDROCHLORIDE]: 0
CCc1nn2c(C)cc(C)nc2c1Cc1ccc(-c2nnc(C3CCNCC3)o2)cc1: 0
CC(C)(O)C(=O)N1CCN(c2ccc(C(F)(F)F)c(C3=C(c4c[nH]c5ccccc45)C(=O)NC3=O)c2)CC1: 1
O=C(Nc1cc(-c2ccccc2)nn1-c1ccccc1F)c1ccc([N+](=O)[O-])cc1: 1
COCCCN1CCC(NC(=O)c2cc(Cl)c(N)c3c2OCC3)CC1 [PRUCALOPRIDE]: 1

Shifting focus to the compound that follows.
For O=c1ccc2ccc(OCCCCN3CCN(c4cccc5sccc45)CC3)cc2[nH]1 [BREXPIPRAZOLE] , what is its reported Population Membrane Permeable-Phenotype (%)?
0

----------
# Test system: HEK-293T
# Experiment: Multiplex assay against HEK293T
# Format: toxicity, cell-based
# Condition: human, 12 h, 1 µM, compound concentration 1 uM, replicate 1
Quick reference: Population Normal (%) of the listed items.
# unit: % | format: bare number

Consider the reported Population Normal (%) for these compounds:
C=CCN1C[C@H](C(=O)N(CCCN(C)C)C(=O)NCC)C[C@@H]2c3cccc4[nH]cc(c34)C[C@H]21: 91
CSc1nc(NC2CCCC2)c([N+](=O)[O-])c(NC2CCCC2)n1: 91

For CCn1c(-c2nc3cc(C(=O)N4CCCC(N)C4)ccc3n2C)cc2ccccc21.Cl (configuration not stated) , what is its reported Population Normal (%)?
92

For `S=C(NCCCc1c[nH]cn1)NCCCN(Cc1ccc(Cl)c(Cl)c1)c1ccc(Br)cn1` , what is its reported Population Normal (%)?
82

----------
# Test system: HEK-293T
# Experiment: Multiplex assay against HEK293T
# Assay type: toxicity, cell-based
# Condition: human, 48 h, 1 µM, compound concentration 1 uM, replicate 1
Quantity Name: Population Pyknosed Nuclei (%)
# unit: % | format: bare number

For `COc1cc(OC2CCN(C(C)=O)CC2)ccc1C(=O)N1CCC(N2C(=O)OCc3ccccc32)CC1` , what is its reported Population Pyknosed Nuclei (%)?
8

For `COc1c(Nc2ccc(S(C)(=O)=O)nc2C)ncnc1OC1CCN(C(=O)OC(C)C)CC1` , what is its reported Population Pyknosed Nuclei (%)?
8

For `CCc1nn2c(C)cc(C)nc2c1Cc1ccc(-c2nnc(C3CCNCC3)o2)cc1` , what is its reported Population Pyknosed Nuclei (%)?
8

----------
# Tested on: HEK-293T
# Experiment: Multiplex assay against HEK293T
# Format: toxicity, cell-based
# Condition: human, 48 h, 1 µM, compound concentration 1 uM, replicate 2
Quick reference: Population Apoptotic (%) of the listed items.
Just the number plus its unit, please.

Consider the reported Population Apoptotic (%) for these molecules:
COc1cc2nc(N3CCN(C(=O)c4ccco4)CC3)nc(N)c2cc1OC.Cl [PRAZOSIN HYDROCHLORIDE]: 38%
COC(c1ccccc1)(c1ccccc1)[C@H](Oc1nc(C)cc(C)n1)C(=O)O [AMBRISENTAN]: 40%
CC(C)(O)C(=O)N1CCN(c2ccc(C(F)(F)F)c(C3=C(c4c[nH]c5ccccc45)C(=O)NC3=O)c2)CC1: 27%

For `Nc1nc(-c2ccco2)c2cnn(Cc3ccccc3F)c2n1` , what is its reported Population Apoptotic (%)?
28%

For Cl.Cl.OCCOCCN1CCN(C(c2ccccc2)c2ccc(Cl)cc2)CC1 (stereo not given) [HYDROXYZINE HYDROCHLORIDE] , what is its reported Population Apoptotic (%)?
46%

----------
# System: HEK-293T
# Experiment: Multiplex assay against HEK293T
# Type: toxicity, cell-based
# Condition: human, 48 h, 10 µM, compound concentration 10 uM, replicate 1
Quantity Name: Population Mitochondria Different-Phenotype (%)
# unit: % | format: bare number

Consider the reported Population Mitochondria Different-Phenotype (%) for these compounds:
OCCCNc1cc(-c2ccnc(Nc3cccc(Cl)c3)n2)ccn1: 78
N[C@](CC1c2ccccc2Oc2ccccc21)(C(=O)O)[C@H]1C[C@@H]1C(=O)O: 17
COc1ccc2c(c1OCc1ccccc1)C[C@@H](C(=O)O)N(C(=O)C(c1ccccc1)c1ccccc1)C2: 22
C[C@@H]1CC(=O)Nc2cccc(-c3ccc4c(c3)c(-c3cnn(C)c3)nn4C)c2N1: 44

For CN(C)C/C=C/C(=O)Nc1ccc(C(=O)N2CCCC(Nc3ncc(Cl)c(-c4c[nH]c5ccccc45)n3)C2)cc1 (stereo unspecified) , what is its reported Population Mitochondria Different-Phenotype (%)?
100

For `Cc1c(Cc2ccc3ccccc3n2)c2cc(F)ccc2n1CC(=O)O` , what is its reported Population Mitochondria Different-Phenotype (%)?
24

----------
# Test system: Fibroblast
# Experiment: Multiplex assay against human fibroblast
# Assay type: toxicity, cell-based
# Condition: 24 h, 10 µM, compound concentration 10 uM, replicate 1
Quick reference: Population Fragmented Nuclei (%) of the listed items.
# unit: % | format: bare number

Consider the reported Population Fragmented Nuclei (%) for these compounds:
CC(C)(C)c1ccc(CSc2cnn(C(C)(C)C)c(=O)c2Cl)cc1 [PYRIDABEN]: 13
OCCCNc1cc(-c2ccnc(Nc3cccc(Cl)c3)n2)ccn1: 36
O=c1ccc2ccc(OCCCCN3CCN(c4cccc5sccc45)CC3)cc2[nH]1 [BREXPIPRAZOLE]: 13
CC(C)C[C@H](CO)Nc1nc(S[C@@H](C)c2ccccc2)nc2nc(N)sc12 [AZD-8797]: 21
COc1cc(OC2CCN(C(C)=O)CC2)ccc1C(=O)N1CCC(N2C(=O)OCc3ccccc32)CC1: 13

Shifting focus to the compound that follows.
Field: Population Fragmented Nuclei (%) (Fibroblast). Entry: `CN1CCN(c2ccc(Nc3c4ccccc4nc4ccccc34)cc2)CC1.Cl.Cl.O`
47

----------
# System: U2OS
# Experiment: Multiplex assay against U2OS
# Format: toxicity, cell-based
# Condition: human, 12 h, 1 µM, compound concentration 1 uM, replicate 1
Quick reference: Population Apoptotic (%) of the listed items.
# unit: % | format: bare number

For `Nc1nc(-c2ccco2)c2cnn(Cc3ccccc3F)c2n1` , what is its reported Population Apoptotic (%)?
82

For Cc1cc(NC(=O)NCCN2CCC(O)(Cc3ccccc3)CC2)c2ccccc2n1 [PALOSURAN] , what is its reported Population Apoptotic (%)?
80

For CN1C[C@H](C(=O)N[C@]2(C)O[C@@]3(O)[C@@H]4CCCN4C(=O)[C@H](Cc4ccccc4)N3C2=O)C[C@@H]2c3cccc4[nH]cc(c34)C[C@H]21.CS(=O)(=O)O [DIHYDROERGOTAMINE MESYLATE] , what is its reported Population Apoptotic (%)?
82

----------
# Test system: Fibroblast
# Experiment: Multiplex assay against human fibroblast
# Assay type: toxicity, cell-based
# Condition: 12 h, 1 µM, compound concentration 1 uM, replicate 2
Hi! Just check whether Population Membrane Permeable-Phenotype (%) is below 6%. Below gives met, equal or above gives not met.

CCCCC[C@H](O)/C=C/[C@H]1[C@H](O)CC(=O)[C@@H]1CCCCCCC(=O)O: not met
Cc1c(Cc2ccc3ccccc3n2)c2cc(F)ccc2n1CC(=O)O: not met
COc1cc(C(=O)N2CC[C@@H](O)[C@@H](N)C2)cc2nc(-c3cc4ccccc4n3CC3CC3)n(C)c12.Cl: not met
CC(C)(C)c1ccc(CSc2cnn(C(C)(C)C)c(=O)c2Cl)cc1: not met
COCCn1c(C)c(C)s/c1=N\C(=O)C1C(C)(C)C1(C)C: met
COC(c1ccccc1)(c1ccccc1)[C@H](Oc1nc(C)cc(C)n1)C(=O)O: met

In plain terms, does CCn1c(-c2nc3cc(C(=O)N4CCCC(N)C4)ccc3n2C)cc2ccccc21.Cl (stereo unspecified) come in under 6% for Population Membrane Permeable-Phenotype (%)?
met

In plain terms, does COCCCN1CCC(NC(=O)c2cc(Cl)c(N)c3c2OCC3)CC1 [PRUCALOPRIDE] come in under 6% for Population Membrane Permeable-Phenotype (%)?
met

In plain terms, does O=C(O)CCC/C=C\CC1C(O)CC(O)C1/C=C/C(O)COc1cccc(Cl)c1 (stereo unspecified) come in under 6% for Population Membrane Permeable-Phenotype (%)?
not met

In plain terms, does Cl.Cl.OCCOCCN1CCN(C(c2ccccc2)c2ccc(Cl)cc2)CC1 (stereo unspecified) [HYDROXYZINE HYDROCHLORIDE] come in under 6% for Population Membrane Permeable-Phenotype (%)?
not met
